Listed molecules paired with reported activity coefficient
- Protocol Summary: activity coefficient (dimensionless); of the first substance listed, at infinite dilution; xn = mol fraction of the nth substance listed
- Particulars: 322.85 K; Liquid; Chromatography; x1 = 0

Molecule | activity coefficient
C1CCCCCC1 [cycloheptane] + CCCCCCCC[N+](C)(C)C.O=S(=O)([N-]S(=O)(=O)C(F)(F)F)C(F)(F)F | 10.8
C#CCCCCC [1-heptyne] + CCCC[N+](C)(CCCC)CCCC.O=S(=O)([N-]S(=O)(=O)C(F)(F)F)C(F)(F)F | 2.79
CCCC(C)=O [pentan-2-one] + CCCCCCCC[N+](CCCCCCCC)(CCCCCCCC)CCCCCCCC.O=S(=O)([N-]S(=O)(=O)C(F)(F)F)C(F)(F)F | 0.35
CCC[N+](=O)[O-] [1-nitropropane] + CCCCCCCC[N+](CCCCCCCC)(CCCCCCCC)CCCCCCCC.O=S(=O)([N-]S(=O)(=O)C(F)(F)F)C(F)(F)F | 0.48
c1ccsc1 [thiophene] + CCCCCCCC[N+](CCCCCCCC)(CCCCCCCC)CCCCCCCC.O=S(=O)([N-]S(=O)(=O)C(F)(F)F)C(F)(F)F | 0.4
CCC(C)=O [butanone] + CCCCCCCCCC[N+](C)(C)C.O=S(=O)([N-]S(=O)(=O)C(F)(F)F)C(F)(F)F | 0.33
C1CCCCCC1 [cycloheptane] + CCCCCCCC[N+](CCCCCCCC)(CCCCCCCC)CCCCCCCC.O=S(=O)([N-]S(=O)(=O)C(F)(F)F)C(F)(F)F | 2.21
CC(C)CO [2-methyl-1-propanol] + CCCCCCCC[N+](C)(C)C.O=S(=O)([N-]S(=O)(=O)C(F)(F)F)C(F)(F)F | 1.87
CCCCCCCC [octane] + CCCCCCCCCC[N+](C)(C)C.O=S(=O)([N-]S(=O)(=O)C(F)(F)F)C(F)(F)F | 6.53
C1CCCCC1 [cyclohexane] + CCCCCCCC[N+](CCCCCCCC)(CCCCCCCC)CCCCCCCC.O=S(=O)([N-]S(=O)(=O)C(F)(F)F)C(F)(F)F | 0.95
CCC=O [propanal] + CCCCCCCC[N+](C)(C)C.O=S(=O)([N-]S(=O)(=O)C(F)(F)F)C(F)(F)F | 0.48
OCC(F)(F)F [2,2,2-trifluoroethanol] + CCCCCCCC[N+](CCCCCCCC)(CCCCCCCC)CCCCCCCC.O=S(=O)([N-]S(=O)(=O)C(F)(F)F)C(F)(F)F | 0.48
CCCC(C)=O [pentan-2-one] + CCCCCCCCCC[N+](C)(C)C.O=S(=O)([N-]S(=O)(=O)C(F)(F)F)C(F)(F)F | 0.44
C[N+](=O)[O-] [nitromethane] + CCCCCCCC[N+](CCCCCCCC)(CCCCCCCC)CCCCCCCC.O=S(=O)([N-]S(=O)(=O)C(F)(F)F)C(F)(F)F | 0.63
CCCC=O [butanal] + CCCCCCCCCC[N+](C)(C)C.O=S(=O)([N-]S(=O)(=O)C(F)(F)F)C(F)(F)F | 0.47
CCC(C)=O [butanone] + CCCCCCCC[N+](CCCCCCCC)(CCCCCCCC)CCCCCCCC.O=S(=O)([N-]S(=O)(=O)C(F)(F)F)C(F)(F)F | 0.29
CCCO [propan-1-ol] + CCCCCCCC[N+](C)(C)C.O=S(=O)([N-]S(=O)(=O)C(F)(F)F)C(F)(F)F | 1.7
CCCCCC [hexane] + CCCCCCCC[N+](CCCCCCCC)(CCCCCCCC)CCCCCCCC.O=S(=O)([N-]S(=O)(=O)C(F)(F)F)C(F)(F)F | 1.3
CO [methanol] + CCCCCCCCCC[N+](C)(C)C.O=S(=O)([N-]S(=O)(=O)C(F)(F)F)C(F)(F)F | 0.79
c1ccncc1 [pyridine] + CCCCCCCCCC[N+](C)(C)C.O=S(=O)([N-]S(=O)(=O)C(F)(F)F)C(F)(F)F | 0.46
CC(C)OC(C)C [diisopropyl ether] + CCCCCCCC[N+](C)(C)C.O=S(=O)([N-]S(=O)(=O)C(F)(F)F)C(F)(F)F | 3.22
OCC(F)(F)F [2,2,2-trifluoroethanol] + CCCCCCCC[N+](C)(C)C.O=S(=O)([N-]S(=O)(=O)C(F)(F)F)C(F)(F)F | 0.4

Data origin, for the record: the NIST ThermoML archive (doi:10.1021/je200637v)
